This listing pairs molecules with measured EC50.
Test system: Respiratory Syncytial Virus (RSV) long strain
Test: microbe, parasite or virus in culture
Assay type: cell-based
Details: human respiratory syncytial virus, HEp-2, 120 h, read-out: 50% effective concentration (EC50), HEp-2 cells infected with RSV long strain, 5 days, CCK-8 readout; Tables A and B list compounds by EC50 band

CC(C)(N)c1cc(-c2ccc(F)cc2)nc(C(O)(CNC(=O)c2ccc3c(c2)CNC(=O)N3)C(F)(F)F)c1 (stereo not shown) [Compound 639] :: 1 to 50 µM

In one line, give reported EC50 of the entry COc1cc(C(=O)NCC(O)(c2cc3c(c(-c4ccc(F)cc4)n2)OCC3(C)N)C(F)(F)F)ccc1OCCO (stereo not shown) [Compound 539] . < 1 µM

In one line, give reported EC50 of the entry COc1cc(C(=O)NCC(O)(c2ccc(OC)c(-c3ccc(F)c(Cl)c3)n2)C(F)F)ccc1OC[C@@H](C)O (stereo partly shown) [Compound 444] . < 1 µM

In one line, give reported EC50 of the entry COc1cc(C(=O)NCC(O)(Cn2nccn2)c2ccc(OC)c(-c3ccc(F)c(Cl)c3)n2)ccc1OCCO (stereo not shown) [Compound 193] . < 1 µM

---

Molecular target: recombinant RSV complex (Human respiratory syncytial virus A, UniProt P28887)
Sequence (P28887 whole entry): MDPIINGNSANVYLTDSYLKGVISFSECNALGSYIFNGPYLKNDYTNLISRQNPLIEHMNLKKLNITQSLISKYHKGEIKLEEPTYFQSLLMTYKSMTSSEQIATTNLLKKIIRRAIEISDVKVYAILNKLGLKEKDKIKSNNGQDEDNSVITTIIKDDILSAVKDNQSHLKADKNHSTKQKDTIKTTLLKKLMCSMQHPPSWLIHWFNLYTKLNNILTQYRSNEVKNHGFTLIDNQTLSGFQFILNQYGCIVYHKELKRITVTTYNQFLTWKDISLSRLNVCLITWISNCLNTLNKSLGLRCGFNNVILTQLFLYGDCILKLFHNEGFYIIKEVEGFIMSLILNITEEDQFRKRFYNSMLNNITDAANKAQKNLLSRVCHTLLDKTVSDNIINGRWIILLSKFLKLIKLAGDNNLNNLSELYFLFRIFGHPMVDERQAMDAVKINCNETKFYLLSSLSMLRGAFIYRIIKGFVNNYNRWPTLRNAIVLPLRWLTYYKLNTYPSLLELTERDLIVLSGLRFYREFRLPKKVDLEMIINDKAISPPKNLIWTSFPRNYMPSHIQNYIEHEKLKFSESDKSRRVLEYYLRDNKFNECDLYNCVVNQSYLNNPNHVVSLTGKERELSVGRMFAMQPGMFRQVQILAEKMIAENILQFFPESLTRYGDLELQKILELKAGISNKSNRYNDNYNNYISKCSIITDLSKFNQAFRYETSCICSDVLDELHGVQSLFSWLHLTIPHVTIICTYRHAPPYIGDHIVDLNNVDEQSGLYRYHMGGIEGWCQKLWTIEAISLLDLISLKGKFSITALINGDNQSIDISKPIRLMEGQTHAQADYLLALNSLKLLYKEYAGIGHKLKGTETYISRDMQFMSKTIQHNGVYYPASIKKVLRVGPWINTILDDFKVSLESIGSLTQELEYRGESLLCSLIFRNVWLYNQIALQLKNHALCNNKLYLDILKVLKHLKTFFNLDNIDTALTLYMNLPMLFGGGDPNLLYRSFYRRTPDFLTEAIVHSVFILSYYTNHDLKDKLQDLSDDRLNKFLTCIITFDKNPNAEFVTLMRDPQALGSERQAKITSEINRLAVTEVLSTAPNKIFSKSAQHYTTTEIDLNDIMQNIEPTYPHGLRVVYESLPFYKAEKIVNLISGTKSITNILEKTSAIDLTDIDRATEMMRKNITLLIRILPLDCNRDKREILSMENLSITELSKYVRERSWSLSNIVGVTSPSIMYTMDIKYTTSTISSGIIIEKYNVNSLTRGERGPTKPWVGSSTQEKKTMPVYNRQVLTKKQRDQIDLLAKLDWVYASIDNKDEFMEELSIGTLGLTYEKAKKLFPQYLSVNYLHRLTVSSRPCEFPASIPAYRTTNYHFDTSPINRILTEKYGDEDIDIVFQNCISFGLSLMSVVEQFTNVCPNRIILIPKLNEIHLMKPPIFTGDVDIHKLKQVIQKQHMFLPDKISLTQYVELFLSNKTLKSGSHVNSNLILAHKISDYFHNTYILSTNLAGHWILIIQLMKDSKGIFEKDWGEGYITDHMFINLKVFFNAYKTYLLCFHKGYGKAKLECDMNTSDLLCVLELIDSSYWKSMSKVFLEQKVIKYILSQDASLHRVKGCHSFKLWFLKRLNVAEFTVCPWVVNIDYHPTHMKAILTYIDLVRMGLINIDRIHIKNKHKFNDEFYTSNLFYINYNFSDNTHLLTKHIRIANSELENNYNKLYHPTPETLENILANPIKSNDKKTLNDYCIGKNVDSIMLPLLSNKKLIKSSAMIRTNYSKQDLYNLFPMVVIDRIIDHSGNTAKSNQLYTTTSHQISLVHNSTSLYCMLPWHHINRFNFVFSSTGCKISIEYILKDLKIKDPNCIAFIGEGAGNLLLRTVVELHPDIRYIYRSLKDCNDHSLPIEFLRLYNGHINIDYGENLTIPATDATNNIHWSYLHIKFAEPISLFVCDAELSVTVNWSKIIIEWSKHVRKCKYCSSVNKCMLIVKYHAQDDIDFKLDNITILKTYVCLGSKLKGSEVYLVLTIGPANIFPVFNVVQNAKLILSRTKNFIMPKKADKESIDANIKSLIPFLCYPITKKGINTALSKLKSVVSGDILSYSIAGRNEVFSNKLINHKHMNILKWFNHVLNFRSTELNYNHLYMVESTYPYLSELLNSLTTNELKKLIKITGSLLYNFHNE
Sequence (P03421 whole entry, further chain): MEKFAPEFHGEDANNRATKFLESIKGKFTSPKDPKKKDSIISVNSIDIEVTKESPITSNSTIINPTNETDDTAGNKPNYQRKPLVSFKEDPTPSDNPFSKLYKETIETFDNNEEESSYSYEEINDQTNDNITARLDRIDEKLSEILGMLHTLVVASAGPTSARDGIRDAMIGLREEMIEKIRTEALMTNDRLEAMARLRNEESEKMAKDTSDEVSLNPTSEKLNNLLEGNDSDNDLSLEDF
Experiment: RSV Polymerase Inhibition Assay
Format: biochemical
pIC50: −log10 of the molar value.
measurementLabel: pIC50

Example results:
COc1cc(C(=O)NCC(O)(c2cc(C(C)(N)CF)cc(-c3ccc(F)cc3)n2)C(F)(F)F)ccc1OC[C@@H](C)O (stereo partly drawn) [Compound 614] :: > 6.00
COc1ccc(C(O)(CO)CNC(=O)c2cc(OC)c3ncccc3c2)nc1-c1ccc(F)c(Cl)c1 (stereo not drawn) [Compound 453] :: > 6.00
COc1cc(C(=O)NCC(O)(c2ccc(OC)c(-c3ccc(F)c(Cl)c3)n2)C(F)F)ccc1OCCO (stereo not drawn) [Compound 436] :: > 6.00
COc1cc(C(=O)NCC(O)(c2cc(C(C)(C)N)cc(-c3ccc(F)cc3)n2)C(F)(F)F)ccc1OC/C(N)=N/O (stereo not drawn) [Compound 636] :: > 6.00
COc1cc(C(=O)NCC(O)(c2cc(C(C)(C)NC(C)C)cc(-c3ccc(F)c(Cl)c3)n2)C(F)(F)F)ccc1OC1CC1 (stereo not drawn) [Compound 392] :: > 6.00

Consider now this further compound.
In one line, give reported pIC50 of the entry CC(C)(N)c1cc(-c2ccc(F)cc2)nc(C(O)(CNC(=O)c2cnc[nH]2)C(F)(F)F)c1 (stereo not drawn) [Compound 613] . > 5.00

---

This listing pairs molecules with measured CC50 at 5 days.
Assay: Cytotoxicity Determination (CCK-8, without addition of virus)
Format: cell-based
Conditions: human, 50% cytotoxicity concentration (CC50)
Method: CPE reduction assays are performed as described by Sidwell and Huffman et al., Appl. Microbiol. (1971) 22(5):797-801 with slight modifications. HEp-2 cells (ATCC #, CCL-23) are seeded at a density of 1,500 cells/30 μl/well into the 384-well cell plate(s) (Corning #3701) one day prior to the assay. Compounds are added into 384-well cell plates by Labcyte POD 810 Plate Assembler system. […] Place on ice until ready to use. […]

Example results:
COc1cc(C(=O)NCC(O)(CF)c2ccc(OC)c(-c3ccc(F)c(Cl)c3)n2)ccc1OCCO (centres unmarked) :: 10 to 100 µM
COc1cc(C(=O)NC[C@](O)(c2cc(C(C)(C)N)cc(-c3ccc(F)cc3)n2)C(F)(F)F)ccc1OCC(N)=O :: > 100 µM
CNc1ccc(C(O)(CNC(=O)c2ccc(OC3CC3)c(OC)c2)C(F)(F)F)nc1-c1ccc(F)c(Cl)c1 (centres unmarked) :: > 100 µM
COc1cc(C(=O)NC[C@](O)(c2cc(C(C)(C)N)cc(-c3ccc(F)cc3)n2)C(F)(F)F)ccc1OCCO :: 10 to 100 µM
COc1cc(C(=O)NC[C@](O)(c2cc(C(C)(C)N)cc(-c3ccc(F)c(Cl)c3)n2)C(F)(F)F)ccc1OC[C@@H](C)O :: 10 to 100 µM
COc1cc(C(=O)NCC(O)(c2cc3c(c(-c4ccc(Cl)c(Cl)c4)n2)OCC3(C)N)C(F)(F)F)ccc1OCCO (centres unmarked) :: 10 to 100 µM
COc1cc(C(=O)NCC(C)(O)c2cc3cc[nH]c3c(-c3ccc(F)c(Cl)c3)n2)ccc1OCCF (single isomer, unassigned) [Compound 296] :: 10 to 100 µM
COc1cc(C(=O)NCC(O)(c2ccc(OC)c(-c3ccc(F)c(Cl)c3)n2)C(F)F)ccc1OCCO (centres unmarked) :: 10 to 100 µM

In one line, give reported CC50 at 5 days of the entry COc1cc(C(=O)NCC(O)(CN2CCNCC2=O)c2ccc(OC)c(-c3ccc(F)c(Cl)c3)n2)ccc1OCCO (centres unmarked) . > 100 µM

In one line, give reported CC50 at 5 days of the entry COc1cc(C(=O)NCC(O)(c2ccc(OC)c(-c3ccc(F)c(Cl)c3)n2)C(F)(F)F)ccc1OC(C)C(N)=O (centres unmarked) . 10 to 100 µM

In one line, give reported CC50 at 5 days of the entry CC1(N)COc2c1cc(C(O)(CNC(=O)c1ccc(OCCO)c(F)c1)C(F)(F)F)nc2-c1ccc(F)cc1 (centres unmarked) . 10 to 100 µM
